tested on: Aedes aegypti; details: day 2; formulation on plywood panels at 1.67 mg cm^−2; 2 h exposure, mortality 24 h after initial exposure
recordedMetric: % mortality on various days following treatment (c %)
Number in c %, nothing else.

{"columns": ["compound", "subjectOfTest", "unitSpec", "reportedResult"],
 "data": [
  ["C=CCCCCCCCCO", "Aedes aegypti", "c %", 34.0]
]}

Now for another entry.
Quick note, % mortality on various days following treatment for CC(=O)CC/C=C(\C)CCC=C(C)C landed at 25.0

###

tested on: Aedes aegypti; conditions: day 5; formulation on military fabric at LC99-based concentration; 2 h exposure, mortality 24 h after initial exposure
recordedMetric: % mortality on various days following treatment (b %)
Enter your answer as a number in b %; do not include the unit.

These solved cases illustrate the format of a correct answer.
{"columns": ["compound", "subjectOfTest", "reportedResult"],
 "data": [
  ["C=CCCCCCCCCO", "Aedes aegypti", 35.00],
  ["CC(=O)CC/C=C(\\C)CCC=C(C)C", "Aedes aegypti", 32.50]
]}

Now look at this one.
Input CC(C)=CCCC(C)CCO (stereo not shown) . Output % mortality on various days following treatment: 35.00
